FYI, the data here is from patent US7008636B2.

Measured melting point, listed per entry.

CCCCCCCCCCCCCCCCNc1c(Nc2cc(-c3ccccc3)c(OCC(=O)O)c(-c3ccccc3)c2)c(=O)c1=O: 132.5 to 133.7 °C
CCCCCCCCCCCCNC(=O)c1cc(Br)c(OCCNC(=O)OC)c(-c2cccc(C(F)(F)F)c2)c1: 79.6 to 80.5 °C

Proceeding to the next compound to report its melting point.
query: melting point lookup needed for CCCCCCCCCCCCCCCCCCOc1cc(-c2ccccc2)c(OCC(=O)O)c(-c2ccccc2)c1 , thanks.
result: 90.5 to 92 °C

====

readoutName: melting point

O=C(O)COc1c(-c2cccc(Cl)c2)cc(C(=O)NCCCCc2ccccc2)cc1-c1cccc(Cl)c1: > 164 °C (dec.)
O=C(NCCCCCCCc1ccccc1)c1cc(-c2cccc(C(F)(F)F)c2)c(OCP(=O)(O)O)c(-c2cccc(C(F)(F)F)c2)c1 (hydrate or solvate): 160 to 165 °C

query: melting point lookup needed for CCCCCCCCOc1cc(-c2cccc(C(F)(F)F)c2)c(OCC(=O)O)c(-c2cccc(C(F)(F)F)c2)c1 , thanks.
result: 75 to 77 °C

====

readoutName: melting point

Cc1cc(COCCCCCCNC(=O)c2cc(-c3cccc(C(F)(F)F)c3)c(OCC(=O)O)c(-c3cccc(C(F)(F)F)c3)c2)c(C)o1: 107.9 to 108.5 °C
Cc1cc(OCCCCCCCCNC(=O)c2cc(-c3cccc(Cl)c3)c(OCC(=O)O)c(-c3cccc(Cl)c3)c2)ccc1F: 138 to 140 °C
CCCCCCCCCCCCNC(=O)c1cc(-c2ccc(OC)cc2)c(OCC(=O)O)c(-c2cccc(Cl)c2)c1: 114 to 117 °C
COc1ccc(-c2cc(C(=O)N(CCc3ccccc3)Cc3ccccc3)cc(-c3ccccc3F)c2OCC(=O)O)cc1: > 73 °C (dec.)
O=C(O)COc1c(-c2cccc(Cl)c2)cc(C(=O)NCC2(COCCCCc3ccccc3)CC2)cc1-c1cccc(Cl)c1: > 52 °C (dec.)

Proceeding to the next compound to report its melting point.
query: melting point lookup needed for O=C(O)COc1c(-c2cccc(C(F)(F)F)c2)cc(C(=O)NCCCCCCOCc2ccc(-c3ccccc3)cc2)cc1-c1cccc(C(F)(F)F)c1 , thanks.
result: 133.2 to 133.9 °C

====

readoutName: melting point

// below: answered compounds
CCCCCCCCCc1cc(-c2ccccc2)c(OCC(=O)O)c(-c2ccccc2)c1: 63 to 65 °C
O=C(O)COc1c(Br)cc(C(=O)NCCc2ccccn2)cc1-c1cccc(Cl)c1: > 102 °C (dec.)
COc1cccc(-c2cccc(-c3cc(OC)cc(C(=O)N(C)CCCCCCCCc4ccccc4)c3)c2OCC(=O)O)c1: 148.9 to 149.7 °C
O=C(O)COc1c(-c2cccc(Cl)c2)cc(C(=O)NCCc2ccccn2)cc1-c1cccc(C(F)(F)F)c1: > 92 °C (dec.)
COc1cccc(-c2cc(C(=O)NCCCCCCCCc3ccccc3)cc(-c3cccc(OC)c3OCC(=O)O)c2)c1: 67.3 to 68.7 °C
COc1ccc(-c2cc(C(=O)NCCCCCCCCc3ccccc3)cc(-c3cccc(Cl)c3)c2OCC(=O)O)cc1: 79.2 to 80.5 °C
COc1ccc(-c2cc(C(=O)N(C)CCCCCCCCc3ccccc3)cc(-c3cccc(C(F)(F)F)c3)c2OCC(=O)O)cc1: > 39 °C (dec.)
COc1ccc(-c2cc(C(=O)NCCc3ccccn3)cc(-c3ccccc3F)c2OCC(=O)O)cc1: > 102 °C (dec.)
O=C(O)COc1c(Br)cc(C(=O)NCCc2ccccn2)cc1-c1ccccc1F: > 154 °C (dec.)
CCCCCCCCCCCCNC(=O)c1cc(-c2cccc(OC)c2)c(OCC(=O)O)c(-c2cccc(OC)c2)c1: 57 to 58 °C

Proceeding to the next compound to report its melting point.
query: melting point lookup needed for O=C(O)COCCOc1c(-c2cc(Cl)cc(Cl)c2)cc(C(=O)NCCCCCCc2ccccc2)cc1-c1cc(Cl)cc(Cl)c1 , thanks.
result: 78.5 to 79.9 °C
